- System: HT-29
- Assay details: Cytotoxicity against 4 Gy [60Co] irradiated HT29 cell line by MTT assay relative to control
- Assay type: cell-based
- Protocol conditions: human
Measurement kind: Activity (%)
Reply with just the number (in %).

>  <Molecule>
CCCNc1ccc([N+](=O)[O-])cc1[N+](=O)[O-]

>  <Measurement kind>
Activity

>  <Quantity unit>
%

>  <Reported result>
20

$$$$

Looking up NC(=O)NO [HYDROXYUREA] , I found its Activity recorded as 25

Looking up O=c1[nH]cc(F)c(=O)[nH]1 , I found its Activity recorded as 65

---

- System: HT-29
- Assay details: Cytotoxicity against HT29 cell line without 4 Gy [60Co]-induced irradiation by MTT assay relative to control
- Format: cell-based
- Protocol conditions: human
Measurement kind: Activity (%)
Reply with just the number (in %).

Reference set, count: 2
>  <Molecule>
O=c1[nH]cc(F)c(=O)[nH]1

>  <Activity [%]>
65

$$$$
>  <Molecule>
CCCNc1ccc([N+](=O)[O-])cc1[N+](=O)[O-]

>  <Activity [%]>
20

$$$$

Moving on to another molecule below.
Looking up NC(=O)NO [HYDROXYUREA] , I found its Activity recorded as 25

Hey, just so you know, these numbers are from ChEMBL document CHEMBL1145297.
